Target: T1, CD28 endogenously expressed on Jurkat/IL2 reporter cells (human, UniProt P10747 19-220)
T1 construct: whole, on cells; Target on Jurkat cells; also called Jurkats (CD28)
Experiment: flow cytometry, Jurkat cells (CD28); MFI relative to WT CD80 ECD-Fc (Abcam)
Reported Fold change to WT CD80 values for a set of binders
measure_name: Fold change to WT CD80 (fold)

[[record]]
binder = "CD80 M47V/N48K/V68M IgV-Fc (Fc fusion, not shown: small tags and cut ends; a dimerising Fc or GST) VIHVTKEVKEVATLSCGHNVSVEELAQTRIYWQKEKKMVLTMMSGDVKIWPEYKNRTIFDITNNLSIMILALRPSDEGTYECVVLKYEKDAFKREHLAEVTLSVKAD"
measure_name = "Fold change to WT CD80"
value_measured = 0.9

[[record]]
binder = "CD80 E35D/N48K/K89N IgV-Fc (Fc fusion, not shown: small tags and cut ends; a dimerising Fc or GST) VIHVTKEVKEVATLSCGHNVSVEELAQTRIYWQKDKKMVLTMMSGDMKIWPEYKNRTIFDITNNLSIVILALRPSDEGTYECVVLKYENDAFKREHLAEVTLSVKAD"
measure_name = "Fold change to WT CD80"
value_measured = 0.6

[[record]]
binder = "CD80 E35D/D46V/M47V/N48K/V68M IgV-Fc (Fc fusion, not shown: small tags and cut ends; a dimerising Fc or GST) VIHVTKEVKEVATLSCGHNVSVEELAQTRIYWQKDKKMVLTMMSGVVKIWPEYKNRTIFDITNNLSIMILALRPSDEGTYECVVLKYEKDAFKREHLAEVTLSVKAD"
measure_name = "Fold change to WT CD80"
value_measured = 1.5

[[record]]
binder = "CD80 M47V/N48K/K89N IgV-Fc (Fc fusion, not shown: small tags and cut ends; a dimerising Fc or GST) VIHVTKEVKEVATLSCGHNVSVEELAQTRIYWQKEKKMVLTMMSGDVKIWPEYKNRTIFDITNNLSIVILALRPSDEGTYECVVLKYENDAFKREHLAEVTLSVKAD"
measure_name = "Fold change to WT CD80"
value_measured = 0.5


Reference source: patent US20210130436A1
